Item-by-item account of %Inh
Test system: ACVR2B;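 further: KINOMEscan kinase panel screen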
SETTINGS: concentration: 1 μM,replicates: in singlicate; n = 1
Express the result in % but write the number alone.

Study these solved cases before continuing.
# COMPOUND, %Inh, %
rows = [
    ("C[C@@H]1CCN(C(=O)N2CCCC2)C[C@@H]1N(C)c1ncnc2[nH]ccc12", 0),
    ("C[C@@H](Oc1cc(-n2cnc3cc(-c4cnn(C)c4)ccc32)sc1C(N)=O)c1ccccc1Cl [GSK580432]", 25),
    ("CNC(=O)c1ccccc1Nc1nc(Nc2cccc(CS(C)(=O)=O)c2)ncc1C.O=CO [GSK1520489]", 54),
    ("Cn1ccc2ncnc(Oc3ccc(NC(=O)Nc4cccc(C(F)(F)F)c4)c(F)c3)c21", 36),
]

Request: Bench note: what %Inh did Nc1nccc(-c2ccc3c(N)n[nH]c3c2)n1 [GSK1034945] show?
Response: 44

Request: Bench note: what %Inh did FC(F)(F)c1cc(Br)cc(Nc2nccc(-c3cnn4ncccc34)n2)c1 [GW810578] show?
Response: 2

Reference source for all entries: paper PMC5540273
